Target: Protein cereblon/Dual specificity tyrosine-phosphorylation-regulated kinase 1A (Homo sapiens, UniProt Q13627+Q96SW2)
Assay: Competitive binding affinity to CRBN/DYRK1A (unknown origin) assessed as dissociation constant
PROPERTY_MEASURED: pKd
One number for each entry, as −log10 of the molar value.

COMPOUND: Cc1nc2ccc(-c3ccnc(N)c3)nc2n1-c1ccc(N2CCN(CCOCCOCCOCCNc3cccc4c3C(=O)N(C3CCC(=O)NC3=O)C4=O)CC2)c(F)c1 (stereo not given)
PROPERTY_MEASURED: pKd
NUMERIC_RESULT: 8.64

Hi team, please reply with pKd for each item in this list.
1. Cc1nc2ccc(-c3ccnc(N)c3)nc2n1-c1ccc(N2CCN(CCOCCOCCOCCC(=O)N3CCN(Cc4ccc(CNc5cccc6c5CN(C5CCC(=O)NC5=O)C6=O)cc4)CC3)CC2)c(F)c1 (stereo not given)
2. Cc1nc2ccc(-c3ccnc(N)c3)nc2n1-c1ccc(N2CCN(CC#Cc3ccc(N4CCC(C(=O)N5CCC(n6cc(CNc7cccc8c7C(=O)N(C7CCC(=O)NC7=O)C8=O)cn6)CC5)CC4)nc3)CC2)c(F)c1 (stereo not given)
3. Cc1nc2ccc(-c3ccnc(N)c3)nc2n1-c1ccc(N2CCN(CCOCCOCCOCCC(=O)N3CCN(c4ccc5c(c4)C(=O)N(C4CCC(=O)NC4=O)C5=O)CC3)CC2)c(F)c1 (stereo not given)
4. Cc1nc2ccc(-c3ccnc(N)c3)nc2n1-c1ccc(N2CCN(C(=O)CCCN3CCC(n4cc(CNc5cccc6c5C(=O)N(C5CCC(=O)NC5=O)C6=O)cn4)CC3)CC2)c(F)c1 (stereo not given)

1: 8.25; 2: 8.20; 3: 8.23; 4: 8.55

The measured values listed here are drawn from ChEMBL document CHEMBL6120970.
